- tested.target: T1, human LILRB5 (human, UniProt O75023 24-590)
- T1 construct: Over-expressed on CHO-s cells; also called hLILRB5
- T1 sequence (O75023 24-590 P542R limits assumed): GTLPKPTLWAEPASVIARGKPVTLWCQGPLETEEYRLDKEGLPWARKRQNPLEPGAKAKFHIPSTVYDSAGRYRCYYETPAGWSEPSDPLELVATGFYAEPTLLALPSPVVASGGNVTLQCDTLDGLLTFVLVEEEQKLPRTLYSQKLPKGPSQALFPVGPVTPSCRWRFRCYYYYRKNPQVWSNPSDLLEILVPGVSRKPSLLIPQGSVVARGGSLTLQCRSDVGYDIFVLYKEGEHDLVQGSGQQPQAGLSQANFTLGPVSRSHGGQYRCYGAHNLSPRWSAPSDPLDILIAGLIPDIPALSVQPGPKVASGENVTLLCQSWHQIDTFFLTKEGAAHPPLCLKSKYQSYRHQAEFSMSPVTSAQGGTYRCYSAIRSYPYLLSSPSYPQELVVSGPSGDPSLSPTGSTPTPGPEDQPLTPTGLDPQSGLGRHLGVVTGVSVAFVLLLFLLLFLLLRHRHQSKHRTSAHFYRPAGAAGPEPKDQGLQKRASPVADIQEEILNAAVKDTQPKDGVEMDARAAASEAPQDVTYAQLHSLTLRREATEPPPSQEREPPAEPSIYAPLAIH
- test.summary: flow cytometry, LILRB5 CHOs
result.type: binding (fold over iso)

binder | experimental.value
J-11 (antibody, human IgG4 S228P, kappa, V domains shown, Human IgG4 chimera of murine origin; also called J-11.h) VH: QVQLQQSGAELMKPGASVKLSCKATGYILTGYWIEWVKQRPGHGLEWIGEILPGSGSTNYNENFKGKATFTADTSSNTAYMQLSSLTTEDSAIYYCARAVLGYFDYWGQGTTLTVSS VL: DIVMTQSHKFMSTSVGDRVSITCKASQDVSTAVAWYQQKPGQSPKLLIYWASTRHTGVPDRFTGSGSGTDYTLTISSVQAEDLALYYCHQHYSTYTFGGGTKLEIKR | 1.22 fold over iso
J-04 (antibody, human IgG4 S228P, kappa, V domains shown, Human IgG4 chimera of murine origin) VH: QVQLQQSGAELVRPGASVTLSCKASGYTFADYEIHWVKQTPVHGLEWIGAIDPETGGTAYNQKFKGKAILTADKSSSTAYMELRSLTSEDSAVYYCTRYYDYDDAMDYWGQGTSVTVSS VL: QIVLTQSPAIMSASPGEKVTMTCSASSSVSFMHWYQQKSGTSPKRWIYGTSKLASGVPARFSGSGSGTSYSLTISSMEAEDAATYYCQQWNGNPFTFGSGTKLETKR | 1.08 fold over iso
